# TEST TARGET: T1, human PD-L1 (human, UniProt Q9NZQ7 19-290)
# T1 construct: whole, on cells; also called hPD-L1; CD274
# T1 sequence (Q9NZQ7 19-290): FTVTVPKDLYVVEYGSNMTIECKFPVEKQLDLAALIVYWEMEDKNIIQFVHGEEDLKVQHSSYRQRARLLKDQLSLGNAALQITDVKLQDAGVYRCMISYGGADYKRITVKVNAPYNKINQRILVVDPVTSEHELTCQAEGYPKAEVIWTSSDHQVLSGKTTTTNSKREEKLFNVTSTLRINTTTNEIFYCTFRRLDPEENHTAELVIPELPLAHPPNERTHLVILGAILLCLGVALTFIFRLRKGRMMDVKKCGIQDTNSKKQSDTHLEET
# PROCEDURE SUMMARY: FACS, CHO-K1/hPD-L1 cells
# From the text: Specifically, the cells expressing PD-L1 were digested and resuspended in PBS buffer containing 2% BSA. The cells were adjusted to a cell density of 1×10⁶ cells/mL, respectively. […] The fluorescence signal values were read using a BD FACS CANTOII flow cytometer or ACEA NovoCyte flow cytometer, and the data were processed and analyzed using FlowJo v10 software (FlowJo, LLC). […]
Below, each entry is listed with its recorded EC50.
Hi! Could you send only the number? It should be in nM, unit omitted.

BINDER	EC50 [nM]
PR006247 (antibody, human IgG1, V domains shown, HCAb; human IgG1 Fc; no light chain) VH: QVQLVESGGGVVQPGMSLRLSCAASGFDFSSYGMYWVRQAPGKGQEWVASIRYTGTEKHYADSVKGRFTISRDNSKNTLYLEMNSLRVEDTAVYYCAKNRALFGVIPDASDIRGQGTMVTVSS	1.01
PR006245 (antibody, human IgG1, V domains shown, HCAb; human IgG1 Fc; no light chain) VH: QVQLVESGGGVVQPGMSLRLSCAASGFDFSSYGMYWVRQAPGKGQEWVASIRYTGTEKHYADSVKGRFTISRDNSKNTLYLEMNSLRVEDTAVYYCAKNRAIFGVVPDASDIRGQGTMVTVSS	0.964
PR006246 (antibody, human IgG1, V domains shown, HCAb; human IgG1 Fc; no light chain) VH: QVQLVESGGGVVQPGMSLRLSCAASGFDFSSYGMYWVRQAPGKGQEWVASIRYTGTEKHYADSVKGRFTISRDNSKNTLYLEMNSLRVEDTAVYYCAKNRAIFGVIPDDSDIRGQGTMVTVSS	0.764

Query: # return recorded EC50 for entry PR006248 (antibody, human IgG1, V domains shown, HCAb; human IgG1 Fc; no light chain) VH: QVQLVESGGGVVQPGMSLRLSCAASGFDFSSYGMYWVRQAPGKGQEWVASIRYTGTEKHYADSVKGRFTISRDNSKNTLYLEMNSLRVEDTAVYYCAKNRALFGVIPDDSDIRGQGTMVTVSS
Result: 0.606

Query: Provide only the value of recorded EC50 for PR000960 (antibody, human IgG1, V domains shown, Fully human heavy-chain-only antibody (HCAb): VH fused to human IgG1 Fc; no light chain) VH: QVQLVESGGGVVQPGMSLRLSCAASGFNFSNYGMYWVRQAPGKGQEWVAIIWYDGTKKHYADSVKGRFTISRDNSKNTLYLEMNSLRVEDTAVYYCAKNRAIFGVVPDASDIRGQGTMVTVSS
Result: 0.79

Query: Identify the reported EC50 for the following entry. PR005878 (antibody, human IgG1, V domains shown, HCAb; human IgG1 Fc; no light chain) VH: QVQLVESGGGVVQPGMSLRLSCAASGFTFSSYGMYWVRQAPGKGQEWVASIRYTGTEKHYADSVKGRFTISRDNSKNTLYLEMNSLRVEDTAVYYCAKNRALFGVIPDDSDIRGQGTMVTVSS
Result: 1.08
